# Test system: L1210 leukemia ip in BDF1 mice, survival T/C
# Measurement Description: NCI In Vivo Anticancer Drug Screen. Data for tumor model L1210 Leukemia (intraperitoneal) in B6D2F1 (BDF1) mice
# Measurement Parameters: endpoint: mean survival time; dose: 100.0 mg/kg/injection; schedule: Q04DX003 (ip); vehicle: saline with Tween-80; higher = longer survival
Inconclusive results and toxic doses are left out.
Consider the following compounds and their measured T/C readings.

* CC(C)CC(O)CC(C)C | 95 % of control
* N#Cc1ccc(Cc2ccc(C#N)cc2)cc1 | 95 % of control
* CC(C)OC(=S)SSc1nc2ccccc2s1 | 90 % of control
* c1ccc(N(CC2CO2)CC2CO2)cc1 (stereo not drawn) | 106 % of control

Field T/C (L1210 leukemia ip in BDF1 mice, survival T/C), entry "CC(C)(Oc1cccc2ccccc12)C(=O)O" : 100 % of control

// compound "CC(C)(C)NCCCC(=O)O" , assay L1210 leukemia ip in BDF1 mice, survival T/C, T/C value: 110 % of control

Known value: L1210 leukemia ip in BDF1 mice, survival T/C T/C of the compound "O=[N+]([O-])c1ccc(C[N+]23CCN(CC2)CC3)cc1" equals 106 % of control

// T/C (L1210 leukemia ip in BDF1 mice, survival T/C) for "OCCNc1ncnc2ccccc12" = 98 % of control

* * *

# System: L1210 leukemia ip in BDF1 mice, survival T/C
# Measurement Description: NCI In Vivo Anticancer Drug Screen. Data for tumor model L1210 Leukemia (intraperitoneal) in B6D2F1 (BDF1) mice
# Measurement Parameters: endpoint: mean survival time; dose: 25.0 mg/kg/injection; schedule: Q01DX001 (ip); vehicle: saline with Tween-80; higher = longer survival
Toxic doses and inconclusive results are not listed.
Recorded Endpoint: T/C

Worked examples, 3 compounds total:
- CC(=O)c1scc2c1CCCC2: 94 % of control
- CCC1C(=O)OCc2c1c(Br)cn(C)c2=O (centres undefined): 101 % of control
- CCOC(=O)c1nc(N)nc(N)c1-c1ccc(Cl)cc1: 98 % of control

Moving on to another compound below.
Entry under test: "O=c1c(Cl)c(-c2ccccc2)nc2ccccn12" . Its T/C was 110 % of control

* * *

# Tested on: L1210 leukemia ip in BDF1 mice, survival T/C
# Measurement Description: NCI In Vivo Anticancer Drug Screen. Data for tumor model L1210 Leukemia (intraperitoneal) in B6D2F1 (BDF1) mice
# Measurement Parameters: endpoint: mean survival time; dose: 75.0 mg/kg/injection; schedule: Q04DX003 (ip); vehicle: saline; higher = longer survival
Inconclusive results and toxic doses are left out.
Reported T/C by item:

• NCCCNc1ccc([N+](=O)[O-])cc1 = 102 % of control
• CC12C(=O)OC3CCC1CC32 (configuration not stated) = 97 % of control
• CN(C)C(=O)c1cc(C(=O)N(C)C)c[n+](Cc2c(Cl)cccc2Cl)c1 = 100 % of control

Per the records, this compound ( CC(N)Cc1ccccc1 (configuration not stated) ) has T/C equal to 100 % of control

Entry "C=CCC(C)(C)/C=N/N" , T/C reported as 102 % of control

The value of T/C measured for the compound "O=c1cc(-c2ccccc2)sc(-c2ccccc2)c1" turned out to be 100 % of control

Value of T/C reported for the compound "CCOC(=O)CCCl" is 117 % of control
